Data provenance: ChEMBL document CHEMBL3272147

# Target Or System: Gonadotropin-releasing hormone receptor (Rattus norvegicus)
# Method Notes: Agonist activity at LH-RH receptor in Sprague-Dawley rat pituitary gland assessed as change in luteinizing hormone release in medium at 100 ug/ml incubated for 4 hrs measured every hour for 4 hrs by RIA relative to vehicle-treated control
Result Type: Activity (ng/mL)

Smiles Text	Activity, ng/mL
CCNC(=O)[C@@H]1CCCN1C(=O)[C@H](CCCNC(=N)N)NC(=O)[C@H](CC(C)C)NC(=O)[C@@H](C)NC(=O)[C@H](Cc1ccc(O)cc1)NC(=O)[C@H](CO)NC(=O)[C@H](CC(C)C)NC(=O)[C@H](Cc1ccccc1)NC(=O)[C@@H]1CCC(=O)N1	59

1: CCNC(=O)[C@@H]1CCCN1C(=O)[C@H](CCCNC(=N)N)NC(=O)[C@H](CC(C)C)NC(=O)[C@@H](C)NC(=O)[C@H](Cc1ccc(O)cc1)NC(=O)[C@H](CO)NC(=O)[C@H](CC(C)C)NC(=O)[C@H](CC(C)C)NC(=O)[C@@H]1CCC(=O)N1
2: CCNC(=O)[C@@H]1CCCN1C(=O)[C@H](CCCNC(=N)N)NC(=O)[C@H](CC(C)C)NC(=O)[C@@H](C)NC(=O)[C@H](Cc1ccc(O)cc1)NC(=O)[C@H](CO)NC(=O)CNC(=O)[C@H](CC(C)C)NC(=O)[C@@H]1CCC(=O)N1
3: CCC[C@H](NC(=O)[C@H](Cc1ccccc1)NC(=O)[C@@H]1CCC(=O)N1)C(=O)N[C@@H](CO)C(=O)N[C@@H](Cc1ccc(O)cc1)C(=O)N[C@H](C)C(=O)N[C@@H](CC(C)C)C(=O)N[C@@H](CCCNC(=N)N)C(=O)N1CCC[C@H]1C(=O)NCC
With regard to Activity, arrange the entries in ascending order, please. // list labels; follow requested order
3, 2, 1

----------
# Target Or System: Gonadotropin-releasing hormone receptor (Rattus norvegicus) (UniProt P30969)
# Sequence (P30969 whole entry): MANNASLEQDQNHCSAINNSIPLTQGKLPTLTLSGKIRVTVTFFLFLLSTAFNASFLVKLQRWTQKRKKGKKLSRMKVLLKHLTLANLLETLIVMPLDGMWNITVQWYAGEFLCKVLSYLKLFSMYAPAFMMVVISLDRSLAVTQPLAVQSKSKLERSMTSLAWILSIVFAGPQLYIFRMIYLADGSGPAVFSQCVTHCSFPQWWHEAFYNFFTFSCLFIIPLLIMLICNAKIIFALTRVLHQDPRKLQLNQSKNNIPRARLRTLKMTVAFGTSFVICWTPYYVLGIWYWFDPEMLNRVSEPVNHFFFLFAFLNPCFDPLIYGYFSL
# Method Notes: Antagonist activity at LH-RH receptor in Sprague-Dawley rat pituitary gland assessed as change in 0.3 ng/mL LH-RH-induced luteinizing hormone release in medium at 10 ug/ml preincubated for 2 hrs followed by LH-RH addition at 5th and 6th hr 5 mins post drug addition and measured every hour for 4 hrs by RIA relative to vehicle-treated control
Result Type: Activity (ng/mL)

I: CCNC(=O)[C@@H]1CCCN1C(=O)[C@H](CCCNC(=N)N)NC(=O)[C@H](CC(C)C)NC(=O)[C@@H](C)NC(=O)[C@H](Cc1ccc(O)cc1)NC(=O)[C@H](CO)NC(=O)[C@H](CC(C)C)NC(=O)[C@@H](NC(=O)[C@@H]1CCC(=O)N1)[C@@H](C)CC
II: CCNC(=O)[C@@H]1CCCN1C(=O)[C@H](CCCNC(=N)N)NC(=O)[C@H](CC(C)C)NC(=O)[C@@H](C)NC(=O)[C@H](Cc1ccc(O)cc1)NC(=O)[C@H](CO)NC(=O)[C@H](CC)NC(=O)[C@H](CC(C)C)NC(=O)[C@@H]1CCC(=O)N1
III: CCNC(=O)[C@@H]1CCCN1C(=O)[C@H](CCCNC(=N)N)NC(=O)[C@H](CC(C)C)NC(=O)[C@@H](C)NC(=O)[C@H](Cc1ccc(O)cc1)NC(=O)[C@H](CO)NC(=O)[C@H](CC(C)C)NC(=O)[C@H](CC(C)C)NC(=O)[C@@H]1CCC(=O)N1
Please rank everything listed above by Activity, with the minimum value first. // list labels; follow requested order
I, III, II
(I: -53 ng/mL, III: 45 ng/mL, II: 150 ng/mL)
